experiment: Oral bioavailability in Sprague-Dawley rat at 10 mg/kg measured measured after 24 hrs by LC-MS/MS analysis; format: ADME, organism-based; conditions: in vivo
Measure name: bioavailability (%)
Quick reminder: number only, in %, skip the unit.

Name the recorded bioavailability of the molecule listed here: Fc1ccc(C2(Cn3ccnc3)COC(c3ccc(-c4ccccc4F)s3)=N2)cc1 (stereo unspecified)
15.1

* * *

tested on: Candida albicans; experiment: Antifungal activity against FLC-resistant Candida albicans 901 assessed as fungal growth inhibition by NCCLS protocol based method; assay type: functional
I'd appreciate it if you marked entries Criterion met when MIC is lower than 1 mg/L and Criterion not met when it is not.

Example cases with answers are listed next.
1. Fc1ccc(C2(Cn3ccnc3)COC(c3ccc(-c4ccccc4F)s3)=N2)cc1 (configuration not stated)    Criterion met
2. Fc1ccc(C2(Cn3ccnc3)COC(c3ccc(-c4ccccc4)s3)=N2)cc1 (configuration not stated)    Criterion met
3. OC(Cn1cncn1)(Cn1cncn1)c1ccc(F)cc1F    Criterion not met
4. Cc1ccc(C2(Cn3ccnc3)COC(c3ccc(-c4ccccc4)s3)=N2)cc1 (configuration not stated)    Criterion not met
5. Cc1cccc(C2(Cn3ccnc3)COC(c3ccc(-c4ccccc4)s3)=N2)c1 (configuration not stated)    Criterion not met

Pending compound:
Identify whether the compound Clc1ccc(C2(Cn3ccnc3)COC(c3ccc(-c4ccccc4)s3)=N2)cc1 (configuration not stated) records MIC below 1 mg/L.
Criterion met
